Target: hM3 muscarinic receptor (Homo sapiens (Human))
Sequence (P20309 whole entry): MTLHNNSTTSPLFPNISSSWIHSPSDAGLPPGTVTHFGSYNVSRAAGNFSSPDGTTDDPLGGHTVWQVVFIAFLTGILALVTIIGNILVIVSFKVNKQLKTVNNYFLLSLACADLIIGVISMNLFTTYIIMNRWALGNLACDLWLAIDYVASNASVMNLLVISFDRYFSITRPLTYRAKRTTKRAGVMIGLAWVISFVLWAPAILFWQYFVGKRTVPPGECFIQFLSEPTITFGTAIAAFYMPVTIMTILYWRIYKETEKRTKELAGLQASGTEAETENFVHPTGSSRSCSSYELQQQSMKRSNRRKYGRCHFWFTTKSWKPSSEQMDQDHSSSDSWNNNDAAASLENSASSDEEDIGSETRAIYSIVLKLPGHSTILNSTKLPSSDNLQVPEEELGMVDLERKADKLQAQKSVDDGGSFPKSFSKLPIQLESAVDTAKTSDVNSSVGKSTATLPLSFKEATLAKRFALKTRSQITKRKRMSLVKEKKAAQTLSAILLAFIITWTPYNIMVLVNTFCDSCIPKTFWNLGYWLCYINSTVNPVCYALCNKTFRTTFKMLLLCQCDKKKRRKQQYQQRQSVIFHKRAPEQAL
Experiment: Radioligand binding assay for muscarinic receptors ([3H]-NMS displacement, CHO cell membranes)
value-kind: pKi
Lab note — pKi values are minus log10 of concentrations in M.

// query Quick check: pKi of "C[C@H](Cc1cccc(CC(=O)NCCCCN(C)C(=O)CCN2CCC(OC(=O)Nc3ccccc3-c3ccccc3)CC2)c1)NC[C@H](O)c1ccc(O)c2[nH]c(=O)ccc12" ?
// result 10.00

// query Another compound to check: "C[C@@H](Cc1ccc(CNC(=O)c2cccc(N(C)C(=O)CCN3CCC(OC(=O)Nc4ccccc4-c4ccccc4)CC3)c2)cc1)NC[C@H](O)c1ccc(O)c2[nH]c(=O)ccc12"
// result 10.00

// query Same read-out for "C[C@H](Cc1cccc(CCC(=O)NCc2ccc(N(C)C(=O)CCN3CCC(OC(=O)Nc4ccccc4-c4ccccc4)CC3)cc2)c1)NC[C@H](O)c1ccc(O)c2[nH]c(=O)ccc12" ?
// result 9.70

// query Here is the next compound: CC(Cc1ccc(CC(=O)Nc2cccc(N(C)C(=O)CCN3CCC(OC(=O)Nc4ccccc4-c4ccccc4)CC3)c2)cc1)NC[C@H](O)c1ccc(O)c2[nH]c(=O)ccc12 (some centres unmarked)
// result 10.00

// query Continue with CC(Cc1cccc(CC(=O)NCCCCN(C)C(=O)CCN2CCC(OC(=O)Nc3ccccc3-c3ccccc3)CC2)c1)NC[C@H](O)c1ccc(O)c2[nH]c(=O)ccc12 (some centres unmarked)
// result 10.00

// query Another: "Cc1cc(NC(=O)c2cccc(N(C)C(=O)CCN3CCC(OC(=O)Nc4ccccc4-c4ccccc4)CC3)c2)c(C)cc1CNC[C@H](O)c1ccc(O)c2[nH]c(=O)ccc12"
// result 9.70

// query # repeat for "C[C@@H](Cc1cccc(NC(=O)c2cccc(N(C)C(=O)CCN3CCC(OC(=O)Nc4ccccc4-c4ccccc4)CC3)c2)c1)NC[C@H](O)c1ccc(O)c2[nH]c(=O)ccc12"
// result 9.70

// query Try the compound CC(Cc1ccc(CNC(=O)Cc2ccc(N(C)C(=O)CCN3CCC(OC(=O)Nc4ccccc4-c4ccccc4)CC3)cc2)cc1)NC[C@H](O)c1ccc(O)c2[nH]c(=O)ccc12 (some centres unmarked) [Compound I-67]
// result 10.00

// query Another: "C[C@@H](Cc1cccc(CNC(=O)Cc2ccc(N(C)C(=O)CCN3CCC(OC(=O)Nc4ccccc4-c4ccccc4)CC3)cc2)c1)NC[C@H](O)c1ccc(O)c2[nH]c(=O)ccc12"
// result 10.00

// query // query: "C[C@H](Cc1cccc(NC(=O)c2cccc(N(C)C(=O)CCN3CCC(OC(=O)Nc4ccccc4-c4ccccc4)CC3)c2)c1)NC[C@H](O)c1ccc(O)c2[nH]c(=O)ccc12"
// result 9.70

// query Input CC(Cc1cccc(NC(=O)CCCN(C)C(=O)CCN2CCC(OC(=O)Nc3ccccc3-c3ccccc3)CC2)c1)NC[C@H](O)c1ccc(O)c2[nH]c(=O)ccc12 (some centres unmarked)
// result 10.00

// query Another compound: "C[C@H](Cc1ccc(CCNC(=O)c2ccc(N(C)C(=O)CCN3CCC(OC(=O)Nc4ccccc4-c4ccccc4)CC3)cc2)cc1)NC[C@H](O)c1ccc(O)c2[nH]c(=O)ccc12"
// result 10.00

// query Let us now turn to "CN(CCCC(=O)Nc1ccc(CCNC[C@H](O)c2ccc(O)c3[nH]c(=O)ccc23)cc1)C(=O)CCN1CCC(OC(=O)Nc2ccccc2-c2ccccc2)CC1"
// result 10.00

// query Also need CC(Cc1ccc(F)c(CC(=O)NCc2ccc(N(C)C(=O)CCN3CCC(OC(=O)Nc4ccccc4-c4ccccc4)CC3)cc2)c1)NC[C@H](O)c1ccc(O)c2[nH]c(=O)ccc12 (some centres unmarked) , thanks.
// result 9.70

// query // repeat for "C[C@H](Cc1cccc(CC(=O)NCc2ccc(N(C)C(=O)CCN3CCC(OC(=O)Nc4ccccc4-c4ccccc4)CC3)cc2)c1)NC[C@H](O)c1ccc(O)c2[nH]c(=O)ccc12" and report
// result 9.52

// query Entry "C[C@@H](Cc1cccc(CC(=O)NCc2ccc(N(C)C(=O)CCN3CCC(OC(=O)Nc4ccccc4-c4ccccc4)CC3)cc2)c1)NC[C@H](O)c1ccc(O)c2[nH]c(=O)ccc12" please
// result 10.00

// query What would you report for "Cc1cc(CNC[C@H](O)c2ccc(O)c3[nH]c(=O)ccc23)ccc1NC(=O)CCCN(C)C(=O)CCN1CCC(OC(=O)Nc2ccccc2-c2ccccc2)CC1" ?
// result 10.00

// query // repeat for "C[C@@H](Cc1cccc(CC(=O)NCCCCN(C)C(=O)CCN2CCC(OC(=O)Nc3ccccc3-c3ccccc3)CC2)c1)NC[C@H](O)c1ccc(O)c2[nH]c(=O)ccc12" and report
// result 10.00

// query Cool, now "C[C@@H](Cc1cccc(CCC(=O)NCc2ccc(N(C)C(=O)CCN3CCC(OC(=O)Nc4ccccc4-c4ccccc4)CC3)cc2)c1)NC[C@H](O)c1ccc(O)c2[nH]c(=O)ccc12"
// result 9.10

// query Follow-up item: "C[C@H](Cc1ccc(CNC(=O)c2cccc(N(C)C(=O)CCN3CCC(OC(=O)Nc4ccccc4-c4ccccc4)CC3)c2)cc1)NC[C@H](O)c1ccc(O)c2[nH]c(=O)ccc12"
// result 9.52
